Published IC50 for Glucocorticoid receptor (Homo sapiens), assembled from different documents, is shown next.

compound	study.system	result.value
COC[C@@]1(O)CC[C@@]2(Cc3ccccn3)c3cc4cnn(-c5ccc(F)cc5)c4cc3CCC[C@H]2C1 (racemic)	Glucocorticoid receptor (Homo sapiens)	< 100 nM

# batch: return IC50 for each of the 7 compounds below
1. COC[C@]1(O)CC[C@]2(CC3CC3)c3cc4cnn(-c5ccc(F)cc5)c4cc3CCC[C@@H]2C1
2. Cn1nc(-c2ccccn2)c2c1NCCSC2c1ccc(-c2cncnc2)cc1Cl (stereo not drawn)
3. CCC[C@@]1(O)CC[C@@]2(CC)c3ccc(C(=O)Nc4cccnc4C)cc3CCC[C@H]2C1 (single isomer, unassigned)
4. CC[C@@]12CC[C@@](O)(COC)C[C@H]1CCCc1cc3c(cnn3-c3ccc(F)cc3)cc12 (single isomer, unassigned)
5. CC[C@@]12CC[C@](O)(COC)C[C@@H]1CCOc1cc3c(cnn3-c3ccc(F)cc3)cc12 (racemic)
6. CC[C@]12C[C@H](O)[C@@](O)(C(F)(F)F)C[C@H]1CCCc1cc3c(cnn3-c3ccc(F)cc3)cc12 (single isomer, unassigned)
7. C[C@]1(O)CC[C@]2(Cc3ccccn3)c3cc4cnn(-c5ccc(F)cc5)c4cc3CCC[C@@H]2C1 (single isomer, unassigned)

[A]
1: < 100 nM; 2: 1000 to 10000 nM; 3: < 100 nM; 4: < 100 nM; 5: < 100 nM; 6: < 100 nM; 7: < 100 nM

# batch: return IC50 for each of the 6 compounds below
1. CCn1nc(-c2ccccn2)c2c1N[C@H](C)CS[C@@H]2c1ccc(C#CCO)cc1C (single isomer, unassigned)
2. C[C@@]1(O)CC[C@@]2(Cc3ccccn3)c3cc4cnn(-c5ccc(F)cc5)c4nc3CCC[C@H]2C1 (racemic)
3. Cc1ncccc1NC(=O)c1ccc2c(c1)CCC[C@H]1CC(C)(O)CC[C@]21Cc1ccccc1 (stereo in doubt)
4. CC[C@@]1(O)CC[C@@]2(Cc3ccccc3)c3ccc(C(=O)Nc4ccccc4N)cc3CCC[C@H]2C1
5. C[C@H](NC(=O)C(C)(F)F)[C@H](Oc1ccc2c(cnn2-c2cccc(C(=O)N(C)CC(N)=O)c2)c1)c1ccccc1
6. Cn1nc(C2CC2)c2c1NCC(C)(C)SC2c1ccc(Cl)cc1C(F)(F)F (stereo not drawn)

[A]
1000 to 10000 nM
< 100 nM
100 to 1000 nM
< 100 nM
4.22 nM
100 to 1000 nM

# batch: return IC50 for each of the 5 compounds below
1. O=C1CCCC[C@H]2CC3(CC[C@@]12Cc1ccccc1)OCCO3 (racemic)
2. Cn1nc(-c2ccc(C(=O)O)cn2)c2c1NCCSC2c1ccc(Cl)cc1Cl (stereo not drawn)
3. Cc1cc(CCCO)ccc1[C@H]1SC[C@H](C)Nc2c1c(-c1ccccn1)nn2C (single isomer, unassigned)
4. O=C(NCC(c1ccccc1)C(c1ccccc1)c1ccccc1)c1ccsc1 (stereo not drawn)
5. C[C@]1(O)CC[C@]2(Cc3ccccn3)c3cc4cnn(-c5ccc(F)cc5)c4nc3CCC[C@@H]2C1 (single isomer, unassigned)

[A]
1. > 10000 nM
2. 1000 to 10000 nM
3. 1000 to 10000 nM
4. 68 nM
5. 100 to 1000 nM

# batch: return IC50 for each of the 5 compounds below
1. C[C@H](NC(=O)C(N)=O)[C@H](Oc1ccc2c(cnn2-c2cccc(C(=O)N3CCC[C@@H]3C(N)=O)c2)c1)c1ccccc1
2. CC[C@@]1(O)CC[C@@]2(Cc3ccccc3)c3ccc(C(=O)Nc4cccnc4C)cc3CCC[C@H]2C1.CC[C@]1(O)CC[C@]2(Cc3ccccc3)c3ccc(C(=O)Nc4cccnc4C)cc3CCC[C@@H]2C1
3. Cn1nc(-c2ccccn2)c2c1NCCSC2c1ccc(-c2cnccc2C#N)cc1Cl (stereo not drawn)
4. CC[C@@]1(O)CC[C@@]2(Cc3ccccc3)c3ccc(C(=O)Nc4ncc(C)nc4C)cc3CCC[C@H]2C1
5. C[C@H](NC(=O)C(C)(F)F)[C@H](Oc1ccc2c(cnn2-c2cccc(C(=O)N[C@H]3CCC[C@@H]3O)c2)c1)c1ccc2c(c1)OCOC2

[A]
19.9 nM
< 100 nM
100 to 1000 nM
< 100 nM
3.44 nM
